test system: Nanoluciferase (engineered Oplophorus gracilirostris luciferase); assay: Primary Nanoluciferase (NLuc) qHTS assay for identification of artifact compounds. (AID 1845222); conditions: NLuc-conditioned medium, Nano-Glo luminescence, 5 min; series mostly up to 54.1 µM;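 note: NLuc secreted into diluted conditioned medium of S16 cells; 0% = DMSO and -100% = no enzyme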
Active and inactive are the calls of the source. Calls come from the whole dose curve; as a rule, active = well fitted inhibition curve with a large enough effect; inconclusive = small, poorly fitted or top-dose-only effect; inactive = flat fitted curve, though single readings scatter.
reported metric: activity, negative = inhibition

Use these answered entries as a reference point.
compound	activity, negative = inhibition
COc1ccnc(CS(=O)c2nc3cc(OC(F)F)ccc3[nH]2)c1OC (stereo not given)	inactive
COc1ccc(CN2CCN(CCCSc3cc(C(C)(C)C)c(O)c(C(C)(C)C)c3)CC2)c(OC)c1OC	3.22% [at 11.6 µM] (inactive)
C=CC(=O)N1CCCC(n2nc(-c3ccc(Oc4ccccc4)cc3)c3c(N)ncnc32)C1 (stereo not given)	inactive
CC(C)c1cc2c(N3CCN(C4=NCC(C)(C)S4)CC3)ncnc2s1	inactive

# input for lookup
The recorded activity, negative = inhibition for entry `CCn1c(=O)c(-c2ccc(Cl)cc2Cl)cc2cnc(Nc3ccc(N4CCNCC4)c(F)c3)nc21` equals inactive

====

molecular target: Cytochrome P450 2D6 (Homo sapiens) (UniProt P10635); assay: Cytochrome P450 family 2 subfamily D member 6 (CYP2D6) small molecule antagonists: luciferase biochemical (cell-free) qHTS assay (AID 1645840); settings: P450-Glo CYP2D6 enzyme, luciferin luminescence, 1 h; series mostly up to 57.4 µM; note: nearly all actives have a fitted effect of over 55% in size
Sequence (P10635 whole entry, looked up): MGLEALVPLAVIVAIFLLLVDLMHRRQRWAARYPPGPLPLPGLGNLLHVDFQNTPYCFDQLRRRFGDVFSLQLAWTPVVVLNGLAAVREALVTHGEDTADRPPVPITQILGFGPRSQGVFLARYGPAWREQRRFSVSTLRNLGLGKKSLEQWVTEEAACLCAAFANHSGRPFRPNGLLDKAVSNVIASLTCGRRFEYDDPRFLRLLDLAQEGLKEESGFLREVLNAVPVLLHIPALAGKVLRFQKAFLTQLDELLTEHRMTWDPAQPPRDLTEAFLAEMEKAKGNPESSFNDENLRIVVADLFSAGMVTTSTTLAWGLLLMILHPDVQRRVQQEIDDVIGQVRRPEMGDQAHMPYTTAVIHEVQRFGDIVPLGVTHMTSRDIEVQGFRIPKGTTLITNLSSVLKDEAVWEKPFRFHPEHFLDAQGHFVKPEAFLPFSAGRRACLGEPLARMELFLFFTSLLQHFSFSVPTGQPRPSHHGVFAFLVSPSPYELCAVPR
Inconclusive results are not listed. Active and inactive are the calls of the source. Calls follow the shape of the dose curve; as a rule, active = well fitted inhibition curve with a large enough effect in the repeat runs; inconclusive = weak or mixed curves; inactive = flat fitted curve, though single readings scatter.
Would you mind answering with one of these outcomes? class 1 (active), class 0 (inactive)

Consider the worked cases shown below.
compound	label
CC1(C)Oc2ncnc(N)c2N=C1c1ccc(C23CCC(CC(=O)O)(CC2)CC3)cc1	class 0
CNC(=O)[C@@H](c1ccccc1)N1CCc2cc(OC)c(OC)cc2[C@@H]1CCc1ccc(C(F)(F)F)cc1	class 1
N#Cc1cc(C2=Nc3ccc(Br)cc3NC(=O)C2)ccn1	class 1
O=C(Nc1ccc(N(Cc2ccsc2)C(=O)Cn2nnc3ccccc32)cc1)C1CC1	class 1
COCCN(C(=O)c1cc(OC)c(OC)c(OC)c1)c1nc(-c2ccccc2)cs1	class 0

Inquiry: Identify the outcome logged in this assay for the compound shown: `Fc1ccc(N2CCCCC2)c(NC(=S)c2ccncc2)c1`
Reply text: class 1

Inquiry: Test call for this compound, please: `CC(C)(C[C@@](O)(Cc1cc2ccncc2[nH]1)C(F)(F)F)c1cc(F)ccc1O`
Reply text: class 1

Inquiry: Assay outcome for `Cn1cc(-c2ccc(S(=O)(=O)n3ccc(/C=C/C(=O)Nc4ccccc4N)c3)cc2)cn1` : what was it?
Reply text: class 1

Inquiry: Assay result, entry `CC(C)NC(=O)COc1cccc(-c2nc(Nc3ccc4[nH]ncc4c3)c3ccccc3n2)c1` — outcome?
Reply text: class 1

Inquiry: Given `COc1ccc(Sc2ccc(NC(=O)c3ccccc3Cl)cc2C#N)cc1` , state the outcome it received in this test.
Reply text: class 0

====

system: Zika virus NS2B-NS3 protease (unlinked complex); assay: Primary screen GU Rhodamine qHTS for Zika virus inhibitors: Unlinked NS2B-NS3 protease assay (AID 1347159); conditions: Recombinant ZIKV NS2B-NS3 protease, Rhodamine110 substrate fluorescence; series mostly up to 107 µM; note: % is set by controls: 0 for no effect and ±100 for the full control effect; nearly all actives have a fitted effect of over 60% in size
Inconclusive results are not listed. Calls of active or inactive are those of the source. Calls come from the whole dose curve; as a rule, active = well fitted inhibition curve with a large enough effect; inconclusive = small, poorly fitted or top-dose-only effect; inactive = no such curve, though single readings can be large or run the other way.
Choose the fitting class; nothing outside yes (1) (active), no (0) (inactive) is accepted.

compound	label
CC(C)/C=C1\NC(=O)C(C(C)C)n2c1nc1ccccc1c2=O (stereo not drawn)	no (0)

Inquiry: # outcome recorded in this test, key = `Cc1ccc(-c2c(C(=O)CCl)n(CCCO)c3ncnc(N)c23)cc1`
Reply text: no (0)

Inquiry: For this compound, state the assay outcome: COc1ccc2c(c1)C(C(=O)N(Cc1ccc(N(C)C)cc1)c1ccc(C(C)C)cc1)CCC2 (stereo not drawn)
Reply text: no (0)

====

tested on: CRL-7250; assay: Cytotoxic Profiling of Annotated Libraries Using Quantitative High-Throughput Screening (AID 1296008); settings: Five cell lines viability, CellTiter-Glo ATP luminescence, 48-72 h; stronger effect = lower value; note: % is set by controls: 0 for no effect and ±100 for the full control effect; nearly all actives have a fitted effect of over 60% in size
Results filed as inconclusive are left out.
Attribute: max response
Report the value in % with no unit label.

Examples with answers:
compound	max response, %
CCCc1cc(C)n(C)c(=O)c1CN(C)C(=O)c1cc(-c2ccc(N3CCN(C(C)C)CC3)nc2)cc2c1cnn2C(C)C	-1.11
CC(C)CCNc1ncccc1C(=O)N1CCN(Cc2ccccc2)CC1	-4.32
O=C1C[C@]23C=CCN4CCC5c6cc7c(cc6N1[C@@]5(CC2)C43)OCO7 (some centres undefined)	-12
O=C(NCCCCN1CCN(c2cccc(Cl)c2Cl)CC1)c1cc2ccccc2s1	-20.7
CC(=O)c1ccc2c(c1)[C@H](NC(=O)c1ccc(F)c(Cl)c1)[C@H](O)C(C)(C)O2	-9.32
CCOC(=O)N1c2ccc(C(F)(F)F)cc2C(N(Cc2cc(C(F)(F)F)cc(C(F)(F)F)c2)C(=O)OC)CC1CC (centres undefined)	-2.53
C=C1CCC[C@]2(C)CC/C(=C(/CO)C(=O)OC)C[C@@H]12	-7.08
C=C1C(=O)OC2C=C(C)CC/C=C(\CO)CC(O)C12 (centres undefined)	-3.89

Switching to the query record.
Recorded max response (compound `CC(C)[C@@H](c1ccc(C(F)(F)F)cc1CN(Cc1cc(C(F)(F)F)cc(C(F)(F)F)c1)c1nnn(C)n1)N1CCC(C(=O)O)CC1` ): -8.05

====

system: C33A; test: Primary qHTS to identify gynecologic anti-cancer compounds using libraries of approved drugs and bioactive compounds (AID 1345084); conditions: Gynecologic cancer cell panel viability, ATPlite luminescence, 48 h; series mostly up to 57.5 µM; note: % is set by controls: 0 for no effect and ±100 for the full control effect; nearly all actives have a fitted effect of over 55% in size
Records with an inconclusive call do not appear. Calls of active or inactive are those of the source. Calls come from the whole dose curve; as a rule, active = well fitted cell-killing curve with a large enough effect; inconclusive = small, poorly fitted or top-dose-only effect, or effect the other way; inactive = flat fitted curve, though single readings scatter.
Quick reference: activity change, negative = cytotoxicity of the listed items.

Some solved entries appear below for comparison.
compound	activity change, negative = cytotoxicity
CC1(C)CC[C@]2(C(=O)O)[C@H](O)C[C@]3(C)C(=CCC4[C@@]5(C)CC[C@H](O[C@@H]6O[C@H](CO[C@@H]7OC[C@H](O)[C@H](O)[C@H]7O[C@@H]7OC[C@H](O)[C@H](O)[C@H]7O)[C@@H](O)[C@H](O)[C@H]6O)C(C)(C)C5CC[C@]43C)[C@@H]2C1 (stereo partly specified)	3.19% [at 11.6 µM] (inactive)
C=CC(C)(O)CC/C=C(\C)C(=O)OC1C(O)C(CO)OC(OC(=O)C23CCC(C)(C)CC2C2=CCC4C5(C)CCC(OC6OC(COC7OCC(OC(C)=O)C(O)C7OC7OC(COC(C)=O)C(O)C(O)C7OC(C)=O)C(O)C(O)C6OC6OCC(O)C(O)C6O)C(C)(C)C5CCC4(C)C2(C)C(O)C3O)C1OC1OCC(OC2OCC(O)C(OC3OCC(O)C(O)C3O)C2O)C(O)C1O (stereo unspecified)	-0.479% [at 6.55 µM] (inactive)
C[C@@H]1O[C@@H](O[C@H]2[C@H](OC(=O)[C@]34CCC(C)(C)C[C@H]3C3=CCC5[C@@]6(C)C[C@H](O)[C@H](O[C@@H]7O[C@H](C(=O)O)[C@@H](O)[C@H](O)[C@H]7O)[C@@](C)(CO)C6[C@H](O)C[C@@]5(C)[C@]3(C)C[C@H]4O)O[C@@H](CO)[C@@H]2O)[C@H](O)[C@H](O)[C@H]1O[C@@H]1OC[C@@H](O)[C@H](O[C@H]2OC[C@](O)(CO)[C@H]2O)[C@H]1O (stereo partly specified)	-18.2% [at 6.55 µM] (inactive)
C/C=C(/C)C(=O)O[C@H]1[C@H](OC(=O)/C(C)=C\C)[C@@]23C(CC1(C)C)[C@]1(CCC4[C@@]5(C)CC[C@H](O[C@@H]6O[C@H](C(=O)O)[C@@H](O)[C@H](O[C@@H]7O[C@H](CO)[C@H](O)[C@H](O)[C@H]7O[C@@H]7O[C@@H](C)[C@H](O)[C@@H](O)[C@H]7O[C@@H]7OC[C@@H](O)[C@H](O)[C@H]7O)[C@H]6O[C@@H]6O[C@H](CO)[C@H](O)[C@H](O)[C@H]6O)C(C)(C)C5CC[C@@]4(C)[C@]1(C)C[C@H]2O)O[C@H]3O (stereo partly specified)	-26.4% [at 6.55 µM] (inactive)
C[C@H]1CC[C@@]2(OC1)O[C@H]1CC3[C@@H]4CC[C@@H]5C[C@@H](O[C@@H]6O[C@H](CO)[C@@H](O[C@@H]7O[C@H](CO[C@@H]8OC[C@@H](O)[C@H](O)[C@H]8O)[C@@H](O[C@@H]8O[C@H](CO)[C@H](O)[C@H](O)[C@H]8O)[C@H](O)[C@H]7O)[C@H](O)[C@H]6O)CC[C@]5(C)C4CC[C@]3(C)[C@H]1[C@@H]2C (stereo partly specified)	-0.589% [at 11.6 µM] (inactive)

Now turn to the next compound.
Please fill in: activity change, negative = cytotoxicity reported for CC1OC(OC2C(O)COC(O[C@@H]3[C@@H](O)[C@@H](O)[C@H](OC4C(OC(=O)[C@]56CCC(C)(C)CC5C5=CCC7[C@@]8(C)C[C@H](O)[C@H](OC9OC(CO)C(O)C(O)C9O)[C@@](C)(CO)C8[C@H](O)C[C@@]7(C)[C@]5(C)CC6)OCC(O)C4O)O[C@H]3C)C2O)C(O)C(O)C1O (stereo partly specified) = -9.28% [at 6.55 µM] (inactive)
